Data provenance is patent US20210322376A1.

- PROCEDURE DETAILS: Pharmacokinetics of ETC-1002
- STATED CONDITIONS: human, in vivo; rapidly absorbed
MEASURE: Tmax

1) CC(C)(CCCCCC(O)CCCCCC(C)(C)C(=O)O)C(=O)O [ETC-1002] ... < 4 h
